Values from PubChem BioAssay (NCI)

System: K-562 leukemia
Assay: NCI tumour cell line growth inhibition, 48 h
Recorded TGI, one value per entry.

MOLECULE | SYSTEM NAME | RESULT
O=C1/C(=C/c2ccc(O)cc2)CCc2ccc([N+](=O)[O-])cc21 | K-562 leukemia | > 100 µM
N#CC(C#N)=C1CCOc2ccc(F)cc21 | K-562 leukemia | > 100 µM
CC(=O)O[C@H]1CCN2C(=O)C=CC(OCc3ccccc3)C12 (some centres undefined) | K-562 leukemia | > 100 µM

Exercise: Report TGI for "COc1cc(/C=C2\N=C(c3ccccc3)N(c3ccc(C(=O)c4ccccc4)cc3N3C(=O)/C(=C/c4ccc(O)c(OC)c4)N=C3c3ccccc3)C2=O)ccc1O" please.
Solution: 53 µM

* * *

Tested on: LOX IMVI melanoma
Assay: NCI tumour cell line growth inhibition, 48 h
RESULT TYPE: TGI

Exercise: Report TGI for "O=C1C(=C([O-])c2ccccc2)C(=O)c2ccccc21.O=C1C(=C([O-])c2ccccc2)C(=O)c2ccccc21.[Mn+2]" please.
Solution: > 100 µM

Exercise: Report TGI for "Cn1c(=O)c2nc3c(=O)n(C)c(=O)n(CC(N)=O)c3nc2n(C)c1=O" please.
Solution: > 100 µM

Exercise: Report TGI for "CC1(C)N=C(N)N=C(N)N1c1ccc(Cl)cc1" please.
Solution: > 100 µM

* * *

System: NCI/ADR-RES ovarian
Assay: NCI tumour cell line growth inhibition, 48 h
Recorded TGI, one value per entry.
Hi! Could you send only the number? It should be in µM, unit omitted.

MOLECULE | TGI / µM
CCOC(=O)C1(C/C=C/CCl)CCCC1=O (centres undefined) | 37.2

Exercise: Report TGI for "COc1cc(/C=C2\N=C(c3ccccc3)N(c3ccc(C(=O)c4ccccc4)cc3N3C(=O)/C(=C/c4ccc(O)c(OC)c4)N=C3c3ccccc3)C2=O)ccc1O" please.
Solution: 89.5

* * *

Test system: CAKI-1 renal
Assay: NCI tumour cell line growth inhibition, 48 h
RESULT TYPE: TGI

Use these answered entries as a reference point.
COMPOUND | TGI
CC(=O)NC(Cc1ccccc1)NC(=O)O (stereo not drawn) | > 100 µM
Nc1[nH]c(=S)nc2nc3c(c(-c4ccccc4)c12)CCCC3 | > 100 µM

Kindly consider the entry below.
Exercise: Write down the reported TGI of "O=c1oc2ccccc2c(O)c1C(c1cnc2ccccc2c1)c1c(O)c2ccccc2oc1=O" , test system: CAKI-1 renal.
Solution: > 100 µM

* * *

System: LOX IMVI melanoma
Experiment: NCI tumour cell line growth inhibition, 48 h
Recorded TGI, one value per entry.

Use these answered entries as a reference point.
COMPOUND | TGI
O=c1oc2ccccc2c(O)c1C(c1cnc2ccccc2c1)c1c(O)c2ccccc2oc1=O | > 100 µM
COc1ccc(C2ON(c3ccccc3)CC=C2C)cc1 (configuration not stated) | > 100 µM
CN(C)Cc1cc(C(=O)/C=C/c2ccc(Cl)c(Cl)c2)cc(CN(C)C)c1O | 2 µM
COc1ccc2c(C)c(Oc3c(Cl)c(Cl)c(O)c(C#N)c3C#N)oc2c1 | > 100 µM
COc1cc([N+](=O)[O-])c(OC)cc1-c1nc2sc(C)cn2c1/C(N)=N/C(=N)N | > 100 µM
CC(C)(C)C1CCC2c3c([nH]c4ccccc34)C3C(=O)N(c4ccccc4Cl)C(=O)C3C2C1 (configuration not stated) | 28.5 µM

Exercise: Write down the reported TGI of "CSc1nc2nn(Cc3ccccc3)cc2c(=O)[nH]1" , test system: LOX IMVI melanoma.
Solution: > 100 µM

Exercise: Write down the reported TGI of C/C=C/C=C\C=C/C(O)C(C)C(CCC(C)C1OC(=O)C=CC1C)OP(=O)(O)O (configuration not stated) , test system: LOX IMVI melanoma.
Solution: 1.09 µM

Exercise: Write down the reported TGI of "C=CC(=O)N1C[C@@H]2CCOc3c(Cl)c(-c4c(O)cccc4F)c(F)c4ncnc(c34)N2C[C@H]1C" , test system: LOX IMVI melanoma.
Solution: 24.4 µM
